target_under_test: T1, recombinant human IL-31 (as used in the NHK STAT3 phosphorylation assay of Example 5) (human, UniProt Q6EBC2 24-164, limits assumed)
T1 sequence: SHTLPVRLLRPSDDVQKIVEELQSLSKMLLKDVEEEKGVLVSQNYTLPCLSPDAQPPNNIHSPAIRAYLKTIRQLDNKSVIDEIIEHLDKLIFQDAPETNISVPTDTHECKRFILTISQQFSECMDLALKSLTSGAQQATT
test_protocol: cell-based or functional assay
assay_metric: IC50, IL-31-induced STAT3 phosphorylation in NHK, Exp 8 (nM)
Number in nM, nothing else.

# binder, observed_measurement
data = [
    ("humanized 292.12.3.1 construct clone 29 (12VH1-gly + HC(F29L, T73K, R94F) + LC(F71Y)) (antibody, human IgG4, V domains shown) VH: QVQLVQSGAEVKKPGASVKVSCKASGYTLTRYWMQWVRQAPGQGLEWMGAIYPGDGDTRYSQKFQGRVTMTRDKSISTVYMELSSLRSEDTAVYYCAFPDGYYAAPYGMDYWGQGTLVTVSS VL: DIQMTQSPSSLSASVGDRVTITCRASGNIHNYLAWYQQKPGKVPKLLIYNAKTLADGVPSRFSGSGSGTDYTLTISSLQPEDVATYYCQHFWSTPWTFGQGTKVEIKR", 4.49),
    ("humanized 292.12.3.1 construct clone 32 (12VH1-gly + HC(F29L, R71A, V78A, R94F) + LC(F71Y)) (antibody, human IgG4, V domains shown) VH: QVQLVQSGAEVKKPGASVKVSCKASGYTLTRYWMQWVRQAPGQGLEWMGAIYPGDGDTRYSQKFQGRVTMTADTSISTAYMELSSLRSEDTAVYYCAFPDGYYAAPYGMDYWGQGTLVTVSS VL: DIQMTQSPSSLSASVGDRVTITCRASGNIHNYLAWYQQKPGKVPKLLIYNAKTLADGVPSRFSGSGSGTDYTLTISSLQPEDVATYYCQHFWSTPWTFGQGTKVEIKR", 11.5),
    ("humanized 292.12.3.1 construct clone 28 (12VH1-gly + HC(F29L, R71A, R94F) + LC(F71Y)) (antibody, human IgG4, V domains shown) VH: QVQLVQSGAEVKKPGASVKVSCKASGYTLTRYWMQWVRQAPGQGLEWMGAIYPGDGDTRYSQKFQGRVTMTADTSISTVYMELSSLRSEDTAVYYCAFPDGYYAAPYGMDYWGQGTLVTVSS VL: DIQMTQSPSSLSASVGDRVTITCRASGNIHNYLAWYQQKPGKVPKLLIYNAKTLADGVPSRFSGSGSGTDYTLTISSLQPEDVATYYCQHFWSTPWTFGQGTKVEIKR", 10.5),
    ("humanized 292.12.3.1 construct clone 7 (12VH1-gly + fback) (antibody, human IgG4, V domains shown, also called 07) VH: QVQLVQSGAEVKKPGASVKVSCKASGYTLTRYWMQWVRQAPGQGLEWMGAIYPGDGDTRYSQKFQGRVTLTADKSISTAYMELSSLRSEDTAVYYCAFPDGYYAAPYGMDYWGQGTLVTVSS VL: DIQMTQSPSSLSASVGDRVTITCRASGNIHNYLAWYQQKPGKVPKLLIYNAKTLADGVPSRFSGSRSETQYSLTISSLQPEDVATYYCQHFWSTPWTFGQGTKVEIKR", 5.44),
]

Req: Returns the measured IC50, IL-31-induced STAT3 phosphorylation in NHK, Exp 8 for the input binder. Input: humanized 292.12.3.1 construct clone 31 (12VH1-gly + HC(F29L, M69L, R71A, V78A, R94F) + LC(F71Y)) (antibody, human IgG4, V domains shown) VH: QVQLVQSGAEVKKPGASVKVSCKASGYTLTRYWMQWVRQAPGQGLEWMGAIYPGDGDTRYSQKFQGRVTLTADTSISTAYMELSSLRSEDTAVYYCAFPDGYYAAPYGMDYWGQGTLVTVSS VL: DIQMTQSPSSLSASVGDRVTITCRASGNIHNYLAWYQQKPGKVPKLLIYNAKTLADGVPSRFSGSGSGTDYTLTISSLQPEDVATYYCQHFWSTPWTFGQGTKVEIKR
Resp: 11

meta.source: patent US20200262913A1
